The measured values listed here are drawn from patent US20110159022A1.

Target: HLA-DR4 (DRB1*0401) (human)
Assay: competition ELISA, tracer biotin-HA 306-318
REPORTED METRIC: relative binding activity

>>> observed_measurement("CKYKFENWGACDGGT (also called MDK13) [MDK 84-98]")
"362 IC50 ratio to reference peptide"
>>> observed_measurement("KEFGADCKYKFENWG (also called MDK12) [MDK 78-92]")
"457 IC50 ratio to reference peptide"
>>> observed_measurement("GTLKKARYNAQCQET (also called MDK16) [MDK 105-119]")
"492 IC50 ratio to reference peptide"
>>> observed_measurement("QTQRIRCRVPCNWKK (also called MDK9) [MDK 64-78]")
"558 IC50 ratio to reference peptide"
>>> observed_measurement("CRVPCNWKKEFGADC (also called MDK10) [MDK 70-84]")
"1560 IC50 ratio to reference peptide"
>>> observed_measurement("ETIRVTKPCTPKTKA (also called MDK18) [MDK 119-133]")
"1290 IC50 ratio to reference peptide"
